List of growth values.
- Test system: MDA-MB-231 breast
- test: NCI-60 one-dose screen, 48 h (100 = growth as untreated, 0 = no growth, -100 = all killed)
- test context: 10 µM unless noted
Compounds without any hit were thinned out: in the full panel of roughly 83,000, 20% have a hit.
measure: growth (%)

COc1c(Br)cc(C(c2cc(Br)c(OC)c(Br)c2)c2ccccc2C(=O)O)cc1Br    102
FC(F)(F)c1cc(-c2nnc3n2N=C(N2CCCC2)CS3)cc(C(F)(F)F)c1    59.6
CC(C)CC1NC(=O)C(CCCN)NC(=O)C(C(C)C)NC(=O)C2CCCN2C(=O)C(Cc2ccccc2)NC(=O)C(CC(C)C)NC(=O)C(CCCN)NC(=O)C(C(C)C)NC(=O)C2CCCN2C(=O)C(Cc2ccccc2)NC1=O (centres undefined)    -54.4
O=C1c2cc3c(cc2-c2c1c1ccc(Cl)cc1c(=O)n2CCCNCCO)OCO3    -79.5
COc1ccc(C2=NN(C(N)=S)C(c3ccc4c(c3)OCO4)C2)cc1 (centres undefined)    48.7
O=C(Nc1nc2ccc(OC(F)(F)F)cc2s1)c1ccc(F)cc1    27.1
O=C1NC(=S)S/C1=C\c1cc(Br)ccc1O    96.7
O=[N+]([O-])c1ccc(NS(=O)(=O)c2ccc(Cl)c(Cl)c2)cc1    76
Oc1c(Cl)cc(Cl)c(Cl)c1Cc1c(O)c(Cl)cc(Cl)c1Cl    -13.5

---

- Test system: ACHN renal
- test: NCI-60 one-dose screen, 48 h
- test context: 10 µM unless noted
This is part of a sample that, as a whole, favours compounds with a hit. Of some 83,000 tested, about 20% had one in any assay. Calls of active or inactive are those of the source. The calls were made as follows: active = growth percent below 10; inactive = the rest.
Outcomes: label 1 for active, label 0 for inactive

O=C(CSc1ncc(-c2ccccc2)n1-c1ccccc1)Nc1ccc(-c2nc3ccccc3s2)cc1    label 0
COC(=O)C1(NC(=O)CNC(=O)OCc2ccccc2)CCCC1    label 0
O=C1N=C(N2CCOCC2)S/C1=C\c1cn(-c2ccccc2)nc1-c1ccccc1    label 0
C#C[C@]1(O)CCC2C3CCc4cc(O)ccc4C3CC[C@@]21C (stereo partly specified)    label 0
O=C(CNC(=O)c1cccc2ccccc12)Nc1ccccc1Oc1cccc(O)c1    label 0
COP(=O)(OC)C(c1ccccc1)(c1ccccc1)c1ccccc1    label 0
CCCCCCCCCCOC(C)=O    label 0
CCOC(=O)CNC(=O)C1(NC(=O)CNC(=O)OCc2ccccc2)CCCC1    label 0
O=[N+]([O-])c1ccc(N=Nc2c(Cl)cc(O)cc2Cl)cc1    label 1
Clc1ccc2[nH]cc(-c3cncn3CCc3ccccc3)c2c1    label 0
N#CC(C#N)C(C#N)C#N    label 0

---

- Test system: K-562 leukemia
- test: NCI-60 one-dose screen, 48 h
- test context: 10 µM unless noted
This is part of a sample that, as a whole, favours compounds with a hit. Of some 83,000 tested, about 20% had one in any assay. The source made the active and inactive calls. How the source made its calls: active means growth percent below 10; inactive means the rest.
Classes used: active, inactive

Cc1n(Cc2ccc3ccccc3c2)c2ccccc2[n+]1Cc1ccc2ccccc2c1    active
NC(=O)NS(=O)(=O)c1ccc(N2N=C(C(F)(F)F)CC2c2cc(C(F)(F)F)cc(C(F)(F)F)c2)cc1 (centres undefined)    inactive
O=C1NC(=O)/C(=C/c2ccc(Cl)cc2Cl)N1    inactive
O=[N+]([O-])c1ccc(NS(=O)(=O)c2ccc(Cl)c(Cl)c2)cc1    inactive
CC(=O)Nc1c(Cl)cc2c(c1Cl)Cc1ccccc1-2    inactive
NS(=O)(=O)c1ccc(-n2ncc3c(NC4CCCCC4)ncnc32)cc1    inactive
N#Cc1c(-c2ccc(F)cc2)n2c(nc1=O)SC(=O)C2=O    inactive
CCOC(=O)CNC(=O)C1(NC(=O)CNC(=O)OCc2ccccc2)CCCC1    inactive
O=c1[nH]cc(Nc2cc(Cl)c3nonc3c2[N+](=O)[O-])c(=O)[nH]1    inactive
COc1cc(Cl)cc(-c2nn(-c3cccc(NC(=O)c4cc(C(F)(F)F)cc(C(F)(F)F)c4)c3)cc2-c2ccncc2)c1    inactive
O=C1C(=O)c2c(nc3ccc(Cl)cn23)-c2ccccc21    active
Cc1[nH]c(=O)[nH]c(=O)c1CCSSCCc1c(C)[nH]c(=O)[nH]c1=O    inactive
COc1c(O)cc2c(c1CC=C(C)C)OC(=O)c1c(cc(O)c(CC=C(C)C)c1O)O2    inactive
C=C1CC[C@@H]2[C@](C)(COC(C)=O)[C@H](OC(C)=O)CC[C@@]2(C)[C@@H]1CC(NCc1ccccc1)C1=CCOC1=O (some centres undefined)    inactive
C[C@]12CCC(=O)C=C1CCC1C2[C@@H](O)C[C@@]2(C)C1CC[C@]2(O)C(=O)COC(=O)CCC(=O)O (some centres undefined)    inactive
CCCCCc1c(C)[nH]c(/C=C2\N=C(c3ccc[nH]3)C=C2Oc2ccccc2)c1C    active
CC(=O)Nc1c(Cl)cc2c(c1Cl)Cc1cc([N+](=O)[O-])ccc1-2    inactive
CC(=O)OCC(=O)[C@@]1(O)CC[C@H]2[C@@H]3CCC4=CC(=O)CC[C@]4(C)[C@@]3(F)[C@@H](O)C[C@@]21C    inactive
COc1cccc(C=Nc2cc(C(C)C)c(O)cc2C)c1O    inactive

---

- Test system: NCI-H322M lung
- test: NCI-60 one-dose screen, 48 h
- test context: 10 µM unless noted
The panel holds about 83,000 compounds, 20% with a hit somewhere; the sample as a whole holds those more often. Activity calls are given as the source filed them. The calls were made as follows: active = growth percent below 10; inactive = the rest.
Possible outcomes: active, inactive

CCN(CC)CCCCCCCNc1c2ccc(Cl)cc2nc2ccc(OC)cc12    active
COC(=O)[C@H]1[C@H]2C[C@@H]3c4[nH]c5cc(OC)ccc5c4CCN3C[C@H]2C[C@@H](OC(=O)/C=C/c2cc(OC)c(OC)c(OC)c2)[C@@H]1OC    inactive
CC1Cc2ccccc2N1C(=O)c1ccc(C(=O)c2ccccc2)cc1 (stereo not drawn)    inactive
Cn1cnc([N+](=O)[O-])c1Sc1nc(N)nc2nc[nH]c12    inactive
COc1ccc2cc(C3=CC(=O)CCC3)ccc2c1    inactive
CCCCCCCCCCNCCSS(=O)(=O)O    inactive
CCSc1nc(-c2ccc(F)cc2)c(C#N)c(=O)[nH]1    inactive
CCC(C)C1NC(=O)C(CCNCS(=O)(=O)O)NC(=O)C(NC(=O)C(CCNCS(=O)(=O)O)NC(=O)C(NC(=O)C(CCNCS(=O)(=O)O)NC(=O)CCCCC(C)C)C(C)O)CCNC(=O)C(C(C)O)NC(=O)C(CCNCS(=O)(=O)O)NC(=O)C(CCNCS(=O)(=O)O)NC(=O)C(C(C)CC)NC1=O (stereo not drawn)    inactive
COc1ccc(CCN2C(=O)CCC3=C2CCCC3=O)cc1OC    inactive
O=C(CN1CCN(c2ccc(Cl)cc2)CC1)N1CCN(c2nnc(-c3ccccc3)c(-c3ccccc3)n2)CC1    inactive
CC1C(C)N(C(=O)CCl)c2ccccc2N1C(=O)CCl (stereo not drawn)    active
CCn1cnc(C[C@H](NC(=O)[C@H](CCCCNC(=O)Nc2cc(C(F)(F)F)cc(C(F)(F)F)c2)NC(=O)Nc2cc(C(F)(F)F)cc(C(F)(F)F)c2)C(=O)OC)c1    active
O=C(CC1Sc2ccccc2NC1=O)NNc1cccc(Cl)c1Cl (stereo not drawn)    inactive
CC(C)=CCCC(C)c1ccc(C)c2c1OCN(CC1CCNCC1)C2 (stereo not drawn)    inactive
COc1cc(C(=O)/C=C/c2cccc(Nc3ccnc4cc(Cl)ccc34)c2)cc(OC)c1OC    active
Cc1ccccc1NC(=O)NC(CC(N)=O)c1ccc2c(c1)nc(-c1cccc(Oc3ccc(C(C)(C)C)cc3)c1)n2CCCN1CCCCC1C (stereo not drawn)    inactive
C(=C1c2ccccc2-c2ccccc21)c1ccccn1    inactive
CCCCCCCCCCCCCCCCCC1=NC(C)(CO)CO1 (stereo not drawn)    inactive

---

- System: EKVX NSCLC
- test: NCI-60 one-dose screen, 48 h (100 = growth as untreated, 0 = no growth, -100 = all killed)
- test context: 10 µM unless noted
About 83,000 compounds went through this panel and 20% of them were active in at least one assay; those are over-represented in the sample as a whole.
measure: growth (%)

CCCCN1c2nc3ccccc3cc2Sc2cc3ccccc3nc21    85.1
Oc1ccccc1/C=N/N1CCCCCC1    115
CCOC(=O)CNC(=O)C1(NC(=O)CNC(=O)OCc2ccccc2)CCCC1    99.4
COP(=O)(OC)C(c1ccccc1)(c1ccccc1)c1ccccc1    101
O=c1[nH]cc(Nc2cc(Cl)c3nonc3c2[N+](=O)[O-])c(=O)[nH]1    34
C#C[C@]1(O)CCC2C3CCc4cc(O)ccc4C3CC[C@@]21C (stereo partly specified)    31.6
